target: Mushroom tyrosinase (Agaricus bisporus) (UniProt O42713+Q00024+C7FF04+C7FF05); assay: Inhibition of mushroom tyrosinase using L-DOPA as substrate at 0.5 uM preincubated for 20 mins followed by substrate addition and measured after 10 mins relative to control; conditions: time 30.0 min
inhibition below 40% gives n; inhibition at or above it gives y.

Does C=CCn1c(SCc2cc(=O)c(O)co2)nc2ccccc2c1=O have a reported inhibition of at least 40%?
n

What about this compound? O=c1cc(CSc2nc3ccccc3c(=O)n2-c2ccccc2)occ1O
y

Follow-up item: O=c1cc(CSc2nc3ccccc3c(=O)n2Cc2ccccn2)occ1O
y

Record: CC(C)n1c(SCc2cc(=O)c(O)co2)nc2ccccc2c1=O
n

Query COc1ccc(-n2c(SCc3cc(=O)c(O)co3)nc3ccccc3c2=O)cc1 next
n

###

biological target: Mushroom tyrosinase (Agaricus bisporus) (UniProt O42713+Q00024+C7FF04+C7FF05); assay: Inhibition of mushroom tyrosinase using L-DOPA as substrate at 10 uM preincubated for 20 mins followed by substrate addition and measured after 10 mins relative to control; details: time 30.0 min
Tag: Satisfied if measured inhibition is not below 80%, Not satisfied if it is.

Confirm if inhibition reported for the compound COc1ccc(-n2c(SCc3cc(=O)c(O)co3)nc3ccccc3c2=O)cc1 is 80% or above.
Satisfied

# iterate: Cc1ccc(-n2c(SCc3cc(=O)c(O)co3)nc3ccccc3c2=O)cc1
Not satisfied

Then this compound: O=c1cc(CSc2nc3ccccc3c(=O)n2-c2ccccn2)occ1O
Satisfied

Same question, O=c1cc(CSc2nc3ccccc3c(=O)n2C2CC2)occ1O this time
Satisfied

Also COc1ccc(-n2c(SCc3cc(=O)c(O)co3)nc3ccccc3c2=O)cc1OC , if possible.
Satisfied

Could you do the same for CC(C)n1c(SCc2cc(=O)c(O)co2)nc2ccccc2c1=O , please?
Satisfied

Moving on to O=c1cc(CSc2nc3ccccc3c(=O)n2Cc2ccc(F)cc2)occ1O
Satisfied

Now the same for O=c1cc(CSc2nc3ccccc3c(=O)n2-c2ccc(Cl)cc2)occ1O
Satisfied

Also need O=c1cc(CSc2nc3ccccc3c(=O)n2-c2ccc(Br)cc2)occ1O , thanks.
Not satisfied
